# MEASUREMENT_DESCRIPTION: Tmax in Han-Wistar rat at 2.1 mg/kg, po
# Assay type: ADME, organism-based
# CONDITION_PARAMETERS: in vivo
VALUE_TYPE: Tmax (h)
Answer with a number only, understood to be in h.

Fill in: Tmax of CC(C)[C@H](NC(=O)C(C)(F)F)[C@H](Oc1ccc2c(cnn2-c2ccc(=O)n(C)c2)c1)c1ccccc1 is ___
2

###

# MEASUREMENT_DESCRIPTION: Terminal half life in Han-Wistar rat at 0.8 mg/kg, iv
# Format: ADME, organism-based
# CONDITION_PARAMETERS: in vivo, read-out: beta t1/2 (converted)
VALUE_TYPE: half-life (h)
Answer with a number only, understood to be in h.

Fill in: half-life of CC(C)[C@H](NC(=O)C(C)(F)F)[C@H](Oc1ccc2c(cnn2-c2ccc(=O)n(C)c2)c1)c1ccccc1 is ___
2.3
